Listed here: items and their measured inhibition at 0.1 µM.
# system_under_test: human recombinant serotonin (5-Hydroxytryptamine) 5-HT6 receptor (Homo sapiens, UniProt P50406)
# Construct: expressed in transfected cells; host or cells: human HeLa cells
# Sequence (P50406 whole entry): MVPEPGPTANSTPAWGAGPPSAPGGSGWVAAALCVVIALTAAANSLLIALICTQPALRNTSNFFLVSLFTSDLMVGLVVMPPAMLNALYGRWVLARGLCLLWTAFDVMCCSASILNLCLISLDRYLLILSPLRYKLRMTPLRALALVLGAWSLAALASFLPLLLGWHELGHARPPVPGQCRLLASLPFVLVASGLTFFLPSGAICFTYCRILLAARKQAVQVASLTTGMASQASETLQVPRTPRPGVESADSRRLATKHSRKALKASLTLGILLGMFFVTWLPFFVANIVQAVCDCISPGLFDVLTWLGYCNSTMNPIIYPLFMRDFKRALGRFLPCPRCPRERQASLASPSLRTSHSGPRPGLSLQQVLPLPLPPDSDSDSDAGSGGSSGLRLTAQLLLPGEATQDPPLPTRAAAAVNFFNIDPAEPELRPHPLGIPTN
# assay_notes: Serotonin 5-HT6 radioligand binding assay ([3H]LSD)
# measurement_parameters: compound at 0.1 μM, HeLa cells, read-out: Percent Inhibition of ligand binding, Serotonin (0.1 μM) 5-HT6
reported_metric: inhibition at 0.1 µM (%)

1. CC[C@@](O)(Cn1c2c(c3cc(C)ccc31)CN(C)CC2)c1ccc(F)cc1    72
2. Cc1ccc2c(c1)c1c(n2CCc2ccc(C(F)(F)F)nc2)C(C)CN(C)C1 (centres unmarked)    4
3. CC(C)c1ccc2c3c(n(CC(C)(O)c4ccncc4)c2c1)CCN(C)C3 (centres unmarked)    -1
4. Cc1ccc2c(c1)c1c(n2CCc2ccc(C)nc2)CCN(CC(F)(F)F)C1    -6
5. Cc1ccc2c(c1)c1c(n2CC(C)(C)c2ccncc2)CCN(C)C1    38
